Each recorded value in this set is attributed to ChEMBL document CHEMBL1150237.

- assayed system: UniProtKB P14902
- Sequence (P14902 whole entry): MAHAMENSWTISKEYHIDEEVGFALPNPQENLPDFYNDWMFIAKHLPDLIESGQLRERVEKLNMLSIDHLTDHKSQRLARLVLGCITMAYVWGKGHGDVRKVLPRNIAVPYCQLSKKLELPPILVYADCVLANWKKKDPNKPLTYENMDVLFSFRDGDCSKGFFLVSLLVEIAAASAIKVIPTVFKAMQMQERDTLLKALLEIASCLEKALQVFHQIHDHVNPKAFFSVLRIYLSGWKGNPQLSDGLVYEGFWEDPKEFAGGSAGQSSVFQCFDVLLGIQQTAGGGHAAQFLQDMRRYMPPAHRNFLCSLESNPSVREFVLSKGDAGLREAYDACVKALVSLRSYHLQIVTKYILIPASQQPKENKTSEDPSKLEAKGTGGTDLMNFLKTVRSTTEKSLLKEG
- assay name: Inhibition of human recombinant indoleamine 2,3-dioxygenase
measured metric: Ki (nM)
The reply should be a number in nM, with the unit left off.

smiles notation: O=C1C=CC(=O)c2[nH]ccc21
assayed system: UniProtKB P14902
Ki, nM: 190

Consider the molecule `O=C(NCCc1c[nH]c2c1C(=O)C=CC2=O)OCc1ccccc1` and give its recorded Ki.
1490
